The measured values listed here are drawn from patent US7902361B2.

Tested on: glycogen synthase
Assay: Glycogen synthase activation in HEK293 cells
Format: cell-based
measure: pEC50
Just the number, please; pEC50 means minus log10 of the concentration in mol/L.

Request: Give a short answer stating reported pEC50 for CNc1cc(Nc2nccc(-c3sc(=O)n(C)c3C)n2)cc(C(F)(F)F)c1 .
Result: 6.35

----------
Molecular target: CDK7/cyclin H (Homo sapiens, UniProt P50613)
Sequence (P50613 whole entry, species assumed): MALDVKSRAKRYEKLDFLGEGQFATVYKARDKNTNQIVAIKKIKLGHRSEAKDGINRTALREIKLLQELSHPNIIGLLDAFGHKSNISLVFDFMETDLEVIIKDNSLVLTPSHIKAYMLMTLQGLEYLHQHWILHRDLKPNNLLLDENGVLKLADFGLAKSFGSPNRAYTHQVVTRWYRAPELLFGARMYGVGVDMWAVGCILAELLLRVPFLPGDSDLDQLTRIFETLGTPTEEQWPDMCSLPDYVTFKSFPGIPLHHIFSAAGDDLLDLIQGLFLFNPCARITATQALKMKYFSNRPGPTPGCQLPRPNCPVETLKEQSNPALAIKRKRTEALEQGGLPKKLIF
Sequence (P51946 whole entry partner, species assumed): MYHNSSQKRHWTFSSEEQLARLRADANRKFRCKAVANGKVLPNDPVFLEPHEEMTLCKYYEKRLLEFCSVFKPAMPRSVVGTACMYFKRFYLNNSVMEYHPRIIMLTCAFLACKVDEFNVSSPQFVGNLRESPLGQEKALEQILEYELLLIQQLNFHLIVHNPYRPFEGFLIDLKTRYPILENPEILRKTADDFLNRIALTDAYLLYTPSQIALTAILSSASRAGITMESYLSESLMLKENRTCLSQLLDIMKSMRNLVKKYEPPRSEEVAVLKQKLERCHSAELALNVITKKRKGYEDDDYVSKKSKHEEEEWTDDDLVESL
Assay: Kinase assay CDK7/cyclin H
Conditions: Ki calculated (Cheng-Prusoff) from experimentally determined IC50 and Km,ATP; read-out: Kinase Inhibition Ki CDK7 - cyclin H
Procedure: The compounds from the examples above were investigated for their ability to inhibit the enzymatic activity of various protein kinases. This was achieved by measurement of incorporation of radioactive phosphate from ATP into appropriate polypeptide substrates. […] After washing 3 times with 75 mM aq orthophosphoric acid, plates were dried, scintillant added and incorporated radioactivity measured in a scintillation counter (TopCount, Packard Instruments, Pangbourne, Berks, UK). […]
Exercise: state measured Ki for each of the compounds provided.
Enter your answer as a number in nM; do not include the unit.

Request: Give a short answer stating reported Ki for Cc1c(-c2ccnc(Nc3cccc(O)c3)n2)sc(=O)n1C .
Result: 620

Request: Give a short answer stating reported Ki for Cc1c(-c2ccnc(Nc3cccc(C(F)(F)F)c3)n2)sc(=O)n1C .
Result: 5100

Request: Give a short answer stating reported Ki for CCn1c(C)c(-c2ccnc(Nc3cccc(O)c3)n2)sc1=O .
Result: 19

Request: Give a short answer stating reported Ki for Cc1c(-c2ccnc(Nc3ccc(N4CCN(Cc5ccccc5)CC4)cc3)n2)sc(=O)n1C .
Result: 12

Request: Give a short answer stating reported Ki for Cc1c(-c2ccnc(Nc3ccc(N4CCOCC4)cc3)n2)sc(=O)n1C .
Result: 1300

Request: Give a short answer stating reported Ki for Cc1c(-c2ccnc(Nc3ccc(N(C)C)c([N+](=O)[O-])c3)n2)sc(=O)n1C .
Result: 1.9

Request: Give a short answer stating reported Ki for Cc1c(-c2ccnc(Nc3cccc(S(=O)(=O)NC(C)C)c3)n2)sc(=O)n1C .
Result: 2700

Request: Give a short answer stating reported Ki for Cc1c(-c2ccnc(Nc3cc(N)cc(C(F)(F)F)c3)n2)sc(=O)n1C .
Result: 73

Request: Give a short answer stating reported Ki for Cc1c(-c2ccnc(Nc3ccc(Cl)nc3)n2)sc(=O)n1CCC(C)C .
Result: 230

Request: Give a short answer stating reported Ki for CCn1c(C)c(-c2ccnc(Nc3ccc(Cl)cc3)n2)sc1=O .
Result: 790

Request: Give a short answer stating reported Ki for COCCNS(=O)(=O)c1cccc(Nc2nccc(-c3sc(=O)n(C)c3C)n2)c1 .
Result: 360

Request: Give a short answer stating reported Ki for CNc1cc(Nc2nccc(-c3sc(=O)n(C)c3C)n2)cc(C(F)(F)F)c1 .
Result: 800

Request: Give a short answer stating reported Ki for CCn1c(C)c(-c2ccnc(Nc3cccc(OC)c3)n2)sc1=O .
Result: 140

Request: Give a short answer stating reported Ki for COc1ccc(C)c(Nc2nccc(-c3sc(=O)n(C)c3C)n2)c1 .
Result: 2900

Request: Give a short answer stating reported Ki for CCn1c(C)c(-c2ccnc(Nc3ccc(N(C)C)cc3)n2)sc1=O .
Result: 220

Request: Give a short answer stating reported Ki for Cc1c(-c2ccnc(Nc3cccc(S(N)(=O)=O)c3)n2)sc(=O)n1C .
Result: 39

Request: Give a short answer stating reported Ki for Cc1ccc(Nc2nccc(-c3sc(=O)n(C)c3C)n2)cc1N .
Result: 600

Request: Give a short answer stating reported Ki for Cc1c(-c2ccnc(Nc3ccc(S(=O)(=O)NCCO)cc3)n2)sc(=O)n1C .
Result: 1200

----------
Target: CDK7/cyclin H (Homo sapiens, UniProt P50613)
Experiment: Kinase assay CDK7/cyclin H
Conditions: Ki calculated (Cheng-Prusoff) from experimentally determined IC50 and Km,ATP; read-out: Kinase Inhibition Ki CDK7 - cyclin H
Decide using Ki alone. Strictly below 200 nM: 1.0. Equal to or above 200 nM: 0.0.

Request: Here's an entry: Cc1c(-c2ccnc(Nc3cccc(CNS(=O)(=O)C(F)(F)F)c3)n2)sc(=O)n1C . Is its Ki below 200 nM?
Result: 1.0

Request: Here's an entry: Cc1c(-c2ccnc(Nc3ccc(N4CCNCC4)cc3)n2)sc(=O)n1C . Is its Ki below 200 nM?
Result: 1.0

Request: Here's an entry: CC(=O)Nc1cc(Nc2nccc(-c3sc(=O)n(C)c3C)n2)cc(C(F)(F)F)c1 . Is its Ki below 200 nM?
Result: 0.0

Request: Here's an entry: Cc1c(-c2ccnc(Nc3cccc(S(=O)(=O)NCCO)c3)n2)sc(=O)n1C . Is its Ki below 200 nM?
Result: 0.0

Request: Here's an entry: Cc1ccc(Nc2nccc(-c3sc(=O)[nH]c3C)n2)cc1[N+](=O)[O-] . Is its Ki below 200 nM?
Result: 0.0

Request: Here's an entry: Cc1c(-c2ccnc(Nc3cccc([N+](=O)[O-])c3)n2)sc(=O)n1CCC(C)C . Is its Ki below 200 nM?
Result: 1.0

Request: Here's an entry: CCn1c(C)c(-c2ccnc(Nc3ccc([N+](=O)[O-])cc3)n2)sc1=O . Is its Ki below 200 nM?
Result: 1.0

Request: Here's an entry: Cc1c(-c2ccnc(Nc3ccc(N4CCNCC4)c(Cl)c3)n2)sc(=O)n1C . Is its Ki below 200 nM?
Result: 1.0

Request: Here's an entry: Cc1c(-c2ccnc(Nc3ccc(N(C)C)cc3)n2)sc(=O)n1C . Is its Ki below 200 nM?
Result: 0.0

Request: Here's an entry: CC(=O)NCc1cccc(Nc2nccc(-c3sc(=O)n(C)c3C)n2)c1 . Is its Ki below 200 nM?
Result: 0.0

Request: Here's an entry: Cc1c(-c2ccnc(Nc3ccc(F)c([N+](=O)[O-])c3)n2)sc(=O)n1C . Is its Ki below 200 nM?
Result: 0.0

Request: Here's an entry: Cc1c(-c2ccnc(Nc3ccc(Cl)c(CO)c3)n2)sc(=O)n1C . Is its Ki below 200 nM?
Result: 1.0

Request: Here's an entry: CC(=O)N1CCN(c2cccc(Nc3nccc(-c4sc(=O)n(C)c4C)n3)c2)CC1 . Is its Ki below 200 nM?
Result: 0.0

Request: Here's an entry: Cc1[nH]c(=O)sc1-c1ccnc(Nc2cccc([N+](=O)[O-])c2)n1 . Is its Ki below 200 nM?
Result: 1.0

Request: Here's an entry: Cc1c(-c2ccnc(Nc3ccc(Cl)cc3)n2)sc(=O)n1C . Is its Ki below 200 nM?
Result: 0.0

Request: Here's an entry: Cc1c(-c2ccnc(Nc3ccc(N4CCN(C)CC4)cc3)n2)sc(=O)n1C . Is its Ki below 200 nM?
Result: 1.0

Request: Here's an entry: Cc1c(-c2ccnc(Nc3cccc(CNS(C)(=O)=O)c3)n2)sc(=O)n1C . Is its Ki below 200 nM?
Result: 1.0

Request: Here's an entry: Cc1c(-c2ccnc(Nc3ccc(Cl)cc3)n2)sc(=O)n1CCC(C)C . Is its Ki below 200 nM?
Result: 0.0

Request: Here's an entry: Cc1c(-c2ccnc(Nc3cccc(C#N)c3)n2)sc(=O)n1C . Is its Ki below 200 nM?
Result: 1.0

Request: Here's an entry: Cc1c(-c2ccnc(Nc3cccc(S(=O)(=O)N4CCOCC4)c3)n2)sc(=O)n1C . Is its Ki below 200 nM?
Result: 0.0

Request: Here's an entry: Cc1c(-c2ccnc(Nc3cccc(CNC(=O)c4ccccc4)c3)n2)sc(=O)n1C . Is its Ki below 200 nM?
Result: 0.0

Request: Here's an entry: CCNS(=O)(=O)c1cccc(Nc2nccc(-c3sc(=O)n(C)c3C)n2)c1 . Is its Ki below 200 nM?
Result: 0.0

Request: Here's an entry: Cc1ccc([N+](=O)[O-])cc1Nc1nccc(-c2sc(=O)n(C)c2C)n1 . Is its Ki below 200 nM?
Result: 0.0

Request: Here's an entry: Cc1ccc(Nc2nccc(-c3sc(=O)n(C)c3C)n2)cc1C(F)(F)F . Is its Ki below 200 nM?
Result: 0.0

Request: Here's an entry: Cc1c(-c2ccnc(Nc3cccc([N+](=O)[O-])c3)n2)sc(=O)n1C . Is its Ki below 200 nM?
Result: 1.0

Request: Here's an entry: CCn1c(C)c(-c2ccnc(Nc3ccc(OC)nc3)n2)sc1=O . Is its Ki below 200 nM?
Result: 1.0

Request: Here's an entry: CCn1c(C)c(-c2ccnc(Nc3ccc(F)cc3)n2)sc1=O . Is its Ki below 200 nM?
Result: 0.0

Request: Here's an entry: Cc1c(-c2ccnc(Nc3ccc(Cl)c(C(F)(F)F)c3)n2)sc(=O)n1C . Is its Ki below 200 nM?
Result: 0.0

Request: Here's an entry: CC(=O)N1CCN(c2ccc(Nc3nccc(-c4sc(=O)n(C)c4C)n3)cc2)CC1 . Is its Ki below 200 nM?
Result: 0.0

Request: Here's an entry: CCn1c(C)c(-c2ccnc(Nc3cccc([N+](=O)[O-])c3)n2)sc1=O . Is its Ki below 200 nM?
Result: 1.0

Request: Here's an entry: CCn1c(C)c(-c2ccnc(Nc3ccc(Cl)c(C)c3)n2)sc1=O . Is its Ki below 200 nM?
Result: 0.0

Request: Here's an entry: Cc1ccc(Nc2nccc(-c3sc(=O)n(C)c3C)n2)cc1[N+](=O)[O-] . Is its Ki below 200 nM?
Result: 1.0

Request: Here's an entry: CC(=O)NCc1ccc(Nc2nccc(-c3sc(=O)n(C)c3C)n2)cc1 . Is its Ki below 200 nM?
Result: 0.0

Request: Here's an entry: CCn1c(C)c(-c2ccnc(Nc3ccc(C)c(O)c3)n2)sc1=O . Is its Ki below 200 nM?
Result: 1.0
